Molecular target: T1, hiR2-FL-S562E-T7 (human, UniProt Q6PJF5 1-856)
T1 sequence: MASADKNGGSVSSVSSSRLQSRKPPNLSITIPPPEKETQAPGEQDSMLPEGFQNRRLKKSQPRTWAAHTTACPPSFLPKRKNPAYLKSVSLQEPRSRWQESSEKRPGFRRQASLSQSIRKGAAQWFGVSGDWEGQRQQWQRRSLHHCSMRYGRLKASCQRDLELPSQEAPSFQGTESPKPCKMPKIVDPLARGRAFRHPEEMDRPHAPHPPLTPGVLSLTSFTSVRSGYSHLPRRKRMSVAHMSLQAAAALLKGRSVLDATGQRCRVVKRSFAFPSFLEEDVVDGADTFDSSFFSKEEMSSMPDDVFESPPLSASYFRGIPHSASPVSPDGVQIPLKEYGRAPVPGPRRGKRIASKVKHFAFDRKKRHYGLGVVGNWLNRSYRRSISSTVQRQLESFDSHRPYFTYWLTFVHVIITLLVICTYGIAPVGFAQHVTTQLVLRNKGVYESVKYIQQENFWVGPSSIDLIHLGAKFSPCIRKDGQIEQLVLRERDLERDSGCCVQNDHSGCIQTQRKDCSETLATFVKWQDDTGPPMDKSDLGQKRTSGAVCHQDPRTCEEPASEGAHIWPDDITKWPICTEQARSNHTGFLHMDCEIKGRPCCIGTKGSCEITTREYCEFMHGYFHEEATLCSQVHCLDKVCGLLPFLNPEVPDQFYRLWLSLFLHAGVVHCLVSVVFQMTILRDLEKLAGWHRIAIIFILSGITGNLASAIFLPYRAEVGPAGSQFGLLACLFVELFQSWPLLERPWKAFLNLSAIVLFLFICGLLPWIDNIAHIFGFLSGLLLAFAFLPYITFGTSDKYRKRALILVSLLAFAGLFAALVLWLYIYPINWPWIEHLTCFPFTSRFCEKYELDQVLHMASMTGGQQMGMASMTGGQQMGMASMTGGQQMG
Assay: FACS, MEF-DKO cells, 3 µg/ml

Binder: antibody 48 (antibody, V domains shown, mouse IgG, kappa light chain; also called clone #48; purified antibody 48) VH: QVQLQQSGTELVRPGTSVKVSCKASGYAFTNYLIEWVKQRPGQGLEWIGVINPGSGFTKYNEKFKGKATLTADKSSSTVYMHLSSLTSEDSAVYFCARGLYRAMDYWGQGTSVTVSS VL: DIQMTQSPASQSASLGESVTITCLASQTIATWLAWYQQKPGKSPQLLIYGATTLADGVPSRFSGGGSGTKFSFKISSLQAEDFVSYYCQQLYSTPYTFGGGTKLEIK
loss of binding vs wild type: ≥ 30%
--
Binder: antibody 3 (antibody, V domains shown, mouse IgG, kappa light chain; also called clone #3; purified antibody 3) VH: QVTLKESGPGILQPSQTLSLTCSFSGFSLTTFAMGIGWVRQPSGKGLEWLAHIWWDGEKYNNPVLKSRLTISKDTSKNQVFLRIANVDTPDTATYYCARISSIYYIIDNWGQGTSVTVSS VL: DIVLTQSPATLSVTPGHSVSLSCRASQSISNNLHWYQKKSHESPRLLIKYVSQSISGIPSRFSGSGSGTDFTLSINSVETEDFGMYFCQQSYNWPLTFGAGTKLELK
loss of binding vs wild type: ≥ 30%
--
Binder: antibody 43 (antibody, V domains shown, mouse IgG, kappa light chain; also called clone #43; purified antibody 43) VH: QVALKESGPGILQPSQTLSLTCSFSGFSLSTFGMGVGWIRQSSGKGLEWLANIWWDDDKYYNPALKSRLTISKDASKNQAFLKIANVDTADTATYYCARIGNYGSNYWYFDVWGTGTTVTVSS VL: QIVLTQSPAIMSASPGERVTMTCSANSRISYMYWYQQKPGSSPRLLIYDTSNLASGVPVRFSGSGSGTSYSLTISRMEAEDAATYNCQQWSSYPLTFGAGTKLELK
loss of binding vs wild type: ≥ 60%
--
Binder: antibody 50 (antibody, V domains shown, mouse IgG, kappa light chain; also called clone #50; purified antibody 50) VH: QVQLQQSGAELVRPGASVKVSCKASGYAFSNYLIEWVKQRPGQGLEWIGVINPGSGFTKYNEKFKGKATLTADKSSSTAYMQLSSLTSEDSAVYFCARGLYRAMDYWGQGTSVTVSS VL: DIQMTQSPASQSASLGESVTITCLASQTIGTWLAWYQQKPGKSPQLLIYAAASLADGVPSRFSGGGSGTKFSFKISSLQAEDFVNYYCQQIYSTPYTFGGGTKLEIK
loss of binding vs wild type: ≥ 30%
--
Binder: antibody 5 (antibody, V domains shown, mouse IgG, kappa light chain; also called clone #5; purified antibody 5) VH: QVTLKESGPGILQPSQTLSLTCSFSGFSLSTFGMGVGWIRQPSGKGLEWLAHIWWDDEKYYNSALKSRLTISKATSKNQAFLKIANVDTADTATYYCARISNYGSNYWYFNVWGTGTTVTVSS VL: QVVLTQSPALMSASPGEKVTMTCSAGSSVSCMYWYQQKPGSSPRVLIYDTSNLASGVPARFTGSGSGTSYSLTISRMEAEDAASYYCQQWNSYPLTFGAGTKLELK
loss of binding vs wild type: ≥ 60%
--
Binder: antibody 42 (antibody, V domains shown, mouse IgG, kappa light chain; also called clone #42; purified antibody 42) VH: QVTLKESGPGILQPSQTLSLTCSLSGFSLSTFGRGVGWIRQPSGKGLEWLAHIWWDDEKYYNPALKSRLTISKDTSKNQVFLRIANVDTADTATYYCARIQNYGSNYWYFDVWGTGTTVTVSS VL: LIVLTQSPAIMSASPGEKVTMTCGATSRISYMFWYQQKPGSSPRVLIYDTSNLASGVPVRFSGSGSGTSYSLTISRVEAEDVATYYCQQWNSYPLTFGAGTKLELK
loss of binding vs wild type: ≥ 60%
--
Binder: antibody 44 (antibody, V domains shown, mouse IgG, kappa light chain; also called clone #44; purified antibody 44) VH: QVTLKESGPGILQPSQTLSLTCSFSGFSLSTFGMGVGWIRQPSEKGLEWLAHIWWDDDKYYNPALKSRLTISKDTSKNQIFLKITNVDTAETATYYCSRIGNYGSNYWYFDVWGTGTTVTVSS VL: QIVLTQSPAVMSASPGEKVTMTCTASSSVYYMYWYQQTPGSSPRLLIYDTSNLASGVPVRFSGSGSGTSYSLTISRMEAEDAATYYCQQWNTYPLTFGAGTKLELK
loss of binding vs wild type: ≥ 30%
--
Binder: antibody 34 (antibody, V domains shown, mouse IgG, kappa light chain; also called clone #34; purified antibody 34) VH: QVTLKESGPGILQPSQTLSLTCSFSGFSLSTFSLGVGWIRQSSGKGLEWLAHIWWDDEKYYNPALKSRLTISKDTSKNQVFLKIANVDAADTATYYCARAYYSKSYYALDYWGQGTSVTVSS VL: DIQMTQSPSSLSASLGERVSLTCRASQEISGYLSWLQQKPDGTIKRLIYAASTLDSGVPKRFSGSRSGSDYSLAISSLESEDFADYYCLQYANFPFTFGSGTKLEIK
loss of binding vs wild type: ≥ 60%
--
Binder: antibody 22 (antibody, V domains shown, mouse IgG, kappa light chain; also called clone #22; purified antibody 22) VH: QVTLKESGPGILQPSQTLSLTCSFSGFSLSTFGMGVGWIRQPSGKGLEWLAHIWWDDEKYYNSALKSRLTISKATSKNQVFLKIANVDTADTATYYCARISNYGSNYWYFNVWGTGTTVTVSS VL: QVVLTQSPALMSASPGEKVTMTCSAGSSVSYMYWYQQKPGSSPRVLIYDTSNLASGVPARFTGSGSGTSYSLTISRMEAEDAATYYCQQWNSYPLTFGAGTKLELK
loss of binding vs wild type: ≥ 30%
